target: Bt-SARS-CoV-2 Spike Protein (RBD) (R319-F541).mFc (SARS-CoV-2); assay: Luminex beads, supernatant
Measurement Type: MFI (MFI)
The response must be a number in MFI with no trailing unit.

# annotated cases, reported MFI shown
Prompt line: Tell me measured MFI for mAb10984 (antibody, V domains shown) VH: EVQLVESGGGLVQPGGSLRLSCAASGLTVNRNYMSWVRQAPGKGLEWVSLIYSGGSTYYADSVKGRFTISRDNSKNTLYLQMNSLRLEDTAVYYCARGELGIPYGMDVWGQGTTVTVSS VL: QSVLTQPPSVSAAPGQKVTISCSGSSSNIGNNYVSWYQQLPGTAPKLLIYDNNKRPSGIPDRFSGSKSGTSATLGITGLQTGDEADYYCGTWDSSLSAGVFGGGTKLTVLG please.
Response line: 17100

Prompt line: Tell me measured MFI for mAb10954 (antibody, V domains shown) VH: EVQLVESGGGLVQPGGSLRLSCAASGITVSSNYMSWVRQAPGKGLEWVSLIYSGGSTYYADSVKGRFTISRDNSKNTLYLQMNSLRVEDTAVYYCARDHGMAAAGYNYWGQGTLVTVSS VL: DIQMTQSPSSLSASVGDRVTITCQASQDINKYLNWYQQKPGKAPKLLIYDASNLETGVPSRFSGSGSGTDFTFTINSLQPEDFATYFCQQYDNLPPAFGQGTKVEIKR please.
Response line: 18400

Prompt line: Tell me measured MFI for mAb10967 (antibody, V domains shown) VH: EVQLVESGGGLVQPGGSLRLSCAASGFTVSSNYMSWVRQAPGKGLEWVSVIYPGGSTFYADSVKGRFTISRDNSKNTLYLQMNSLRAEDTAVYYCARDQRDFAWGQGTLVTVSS VL: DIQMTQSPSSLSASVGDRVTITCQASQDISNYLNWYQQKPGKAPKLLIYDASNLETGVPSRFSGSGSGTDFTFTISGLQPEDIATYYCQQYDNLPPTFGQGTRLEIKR please.
Response line: 16800

Prompt line: Tell me measured MFI for mAb10921 (antibody, V domains shown) VH: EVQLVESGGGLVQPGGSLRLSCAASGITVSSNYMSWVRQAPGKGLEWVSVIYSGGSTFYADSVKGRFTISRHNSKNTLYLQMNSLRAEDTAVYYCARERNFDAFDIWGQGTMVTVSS VL: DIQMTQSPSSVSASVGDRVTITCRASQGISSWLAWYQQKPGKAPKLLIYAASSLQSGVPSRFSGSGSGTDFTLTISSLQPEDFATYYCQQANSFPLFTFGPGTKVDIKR please.
Response line: 11300

Further cases:
Prompt line: Tell me measured MFI for mAb10989 (antibody, V domains shown) VH: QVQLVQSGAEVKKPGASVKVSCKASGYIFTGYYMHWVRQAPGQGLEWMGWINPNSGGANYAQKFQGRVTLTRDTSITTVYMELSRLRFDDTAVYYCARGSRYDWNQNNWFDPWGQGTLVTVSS VL: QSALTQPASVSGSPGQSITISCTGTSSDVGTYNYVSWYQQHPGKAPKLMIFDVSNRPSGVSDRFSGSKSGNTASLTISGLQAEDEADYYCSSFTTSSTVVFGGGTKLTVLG please.
Response line: 11200
